assay: Bone marrow myeloid progenitor colony assay, 14 days; format: cell-based, human; details: human, human bone marrow myeloid progenitors, read-out: Mean CC50 ± SD in Bone marrow cells Myeloid
reported property: CC50 at 14 days (µM)
Supply the numeric figure in µM, leaving out any unit text.

QUERY: Item under review: C[C@@]1(O)[C@H](O)[C@@H](CO)O[C@H]1n1ccc(N)nc1=O . Reported CC50 at 14 days?
RESULT: 76

QUERY: Could you tell me which CC50 at 14 days is on file for COc1ccc(C[C@H](N)C(=O)N[C@H]2[C@@H](O)[C@H](n3cnc4c(N(C)C)ncnc43)O[C@@H]2CO)cc1 ?
RESULT: 0.27

QUERY: Entry [N-]=[N+]=N[C@]1(CO)O[C@@H](n2ccc(N)nc2=O)[C@H](O)[C@@H]1O : reported CC50 at 14 days = ?
RESULT: 108

----------
tested on: mitochondrial DNA-encoded cytochrome c oxidase (COX-1); experiment: Mitochondrial protein synthesis assay (COX-1, MitoBiogenesis in-cell ELISA) in PC-3 cells; format: cell-based, human; details: PC-3 cells, COX-1, 5 days; read-out: Mean CC50 ± SD causing Mitochondrial toxicity: Protein synthesis
reported property: CC50 (nM)
Give the number; nM is assumed, so skip it.

QUERY: Dear colleague, I am looking for the recorded CC50 of the following molecule: Nc1ccn([C@H]2CC[C@@H](CO)O2)c(=O)n1 [ddC, dideoxycytosine]
RESULT: 190

----------
assay: Bone marrow myeloid progenitor colony assay, 14 days; format: cell-based, human; details: human, read-out: Mean CC50 ± SD in Bone marrow cells Myeloid
reported property: CC50

QUERY: Bench note: what CC50 did COc1nc(N)nc2c1ncn2[C@@H]1O[C@H](COP(=O)(N[C@@H](C)C(=O)OCC(C)(C)C)Oc2cccc3ccccc23)[C@@H](O)[C@@]1(C)O (stereo partly shown) [BMS-986094] show?
RESULT: 2600 nM

----------
test: Cytotoxicity in primary rat neonatal cardiomyocytes, 5 days; assay type: cell-based; details: Sprague Dawley, primary rat neonatal cardiomyocytes, 5-day treatment, read-out: CC50 (mean ± standard deviation) in primary rat cardiomyocytes
reported property: CC50 at 5 days (nM)
Please reply with the bare figure in nM and do not write the unit itself.

QUERY: Give its CC50 at 5 days value. Item: COc1ccc(C[C@H](N)C(=O)N[C@H]2[C@@H](O)[C@H](n3cnc4c(N(C)C)ncnc43)O[C@@H]2CO)cc1
RESULT: 330

----------
target: recombinant human PolRMT (Homo sapiens); construct: purchased Enzymax (Lexington, KY); assay: Inhibition of PolRMT-catalyzed RNA synthesis; type: biochemical; settings: nucleotide analogs (Table 6); read-out: Mean IC50 ± SD for PolRMT
Sequence (O00411 42-1230): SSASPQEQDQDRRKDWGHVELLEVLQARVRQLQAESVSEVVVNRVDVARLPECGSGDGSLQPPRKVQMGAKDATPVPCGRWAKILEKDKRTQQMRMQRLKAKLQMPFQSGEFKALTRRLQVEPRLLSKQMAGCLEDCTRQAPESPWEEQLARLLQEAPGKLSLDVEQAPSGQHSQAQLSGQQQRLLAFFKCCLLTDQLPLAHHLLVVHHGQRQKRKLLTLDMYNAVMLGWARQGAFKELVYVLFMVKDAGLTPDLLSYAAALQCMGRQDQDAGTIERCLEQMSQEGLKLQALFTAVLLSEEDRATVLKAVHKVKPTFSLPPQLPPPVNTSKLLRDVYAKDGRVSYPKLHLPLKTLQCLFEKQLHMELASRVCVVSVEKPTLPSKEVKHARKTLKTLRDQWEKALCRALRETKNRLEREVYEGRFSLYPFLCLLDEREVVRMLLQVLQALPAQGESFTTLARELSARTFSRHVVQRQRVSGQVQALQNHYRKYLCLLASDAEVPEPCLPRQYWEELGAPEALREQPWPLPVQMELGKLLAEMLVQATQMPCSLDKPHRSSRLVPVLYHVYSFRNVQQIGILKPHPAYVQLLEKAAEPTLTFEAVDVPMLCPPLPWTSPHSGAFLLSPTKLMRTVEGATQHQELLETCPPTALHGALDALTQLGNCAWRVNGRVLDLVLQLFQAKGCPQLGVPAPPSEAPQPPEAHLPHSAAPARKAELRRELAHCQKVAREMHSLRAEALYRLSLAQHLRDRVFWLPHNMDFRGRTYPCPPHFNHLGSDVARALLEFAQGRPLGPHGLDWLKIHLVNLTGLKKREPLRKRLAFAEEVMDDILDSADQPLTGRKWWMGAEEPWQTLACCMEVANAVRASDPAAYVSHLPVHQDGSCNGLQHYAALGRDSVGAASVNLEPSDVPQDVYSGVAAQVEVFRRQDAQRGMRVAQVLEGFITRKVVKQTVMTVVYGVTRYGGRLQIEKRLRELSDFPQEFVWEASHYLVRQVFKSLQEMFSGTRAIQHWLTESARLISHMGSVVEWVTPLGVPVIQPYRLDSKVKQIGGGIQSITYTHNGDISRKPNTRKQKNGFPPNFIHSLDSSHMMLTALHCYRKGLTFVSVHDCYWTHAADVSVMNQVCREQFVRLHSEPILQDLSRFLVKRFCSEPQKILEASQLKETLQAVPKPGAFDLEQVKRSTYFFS
reported property: pIC50
Reminder that pIC50 means the negative base-10 logarithm of the concentration expressed in mol/L.

QUERY: Looking for the measured pIC50 of C[C@@]1(O)[C@H](O)[C@@H](COP(=O)(O)OP(=O)(O)OP(=O)(O)O)O[C@H]1n1ccc(=O)[nH]c1=O , can you help?
RESULT: 3.62

QUERY: Fill blank: measured pIC50 of the molecule Nc1nc2c(ncn2[C@@H]2O[C@H](COP(=O)(O)OP(=O)(O)OP(=O)(O)O)C[C@H]2O)c(=O)[nH]1 is ____.
RESULT: 5.38

----------
test system: T-cells (MT-4); test: Cytotoxicity in MT-4 T-cells, 5-day treatment; settings: read-out: Mean CC50 ± SD in T-cells (MT-4); 5-day treatment
reported property: CC50

QUERY: Name the reported CC50 value associated with the compound Nc1ccn([C@H]2CC[C@@H](CO)O2)c(=O)n1 [ddC, dideoxycytosine]
RESULT: > 89 µM
